Target: Muscarinic acetylcholine receptor (Rattus norvegicus) (UniProt P08482+P08483+P08485+P08911+P10980)

molecule	readoutUnits	K app
Cc1nsc([C@H]2CN3CCC2C3)n1 (stereo partly drawn)	µM	0.37
CCc1nsc([C@H]2CN3CCC2C3)n1 (stereo partly drawn)	µM	0.51
CN1CCC=C(c2ncno2)C1	µM	8.9

* * *

Recorded log10 of K app for the following compounds
Biological target: Muscarinic acetylcholine receptor (Rattus norvegicus) (UniProt P08482+P08483+P08485+P08911+P10980)
measuredParameter: log10 of K app (log10 of the value in µM)

compound	measuredParameter	readoutNumber
CC(C)c1nsc(C2CN3CCC2CC3)n1 (stereo not given)	log10 of K app	-1.48
CN(C)c1nsc([C@@H]2CN3CCC2C3)n1 (stereo not given in full)	log10 of K app	-0.08
CSc1nsc(C2CN3CCC2CC3)n1 (stereo not given)	log10 of K app	-0.92
Cc1nsc(C2CN3CCC2CC3)n1 (stereo not given)	log10 of K app	-0.44
CN1CCC=C(c2ncns2)C1	log10 of K app	1.04
Cc1nsc(C2=CCCNC2)n1	log10 of K app	-0.02
Cc1nsc(C2CCN(C)C2)n1 (stereo not given)	log10 of K app	1.56
C1=C(c2ncns2)CNCC1	log10 of K app	1.04
CCc1nsc(C2CN3CCC2CC3)n1 (stereo not given)	log10 of K app	-1.09
COc1nsc([C@@H]2CN3CCC2C3)n1 (stereo not given in full)	log10 of K app	0.30
COc1nsc([C@H]2CN3CCC2C3)n1 (stereo not given in full)	log10 of K app	0.26
CCc1nsc([C@@H]2CN3CCC2C3)n1 (stereo not given in full)	log10 of K app	-0.54
C1CC1c1nsc([C@@H]2CN3CCC2C3)n1 (stereo not given in full)	log10 of K app	-0.68
c1ccc(Cc2nsc([C@H]3CN4CCC3C4)n2)cc1 (stereo not given in full)	log10 of K app	-0.27
COc1nsc(C2CN3CCC2CC3)n1 (stereo not given)	log10 of K app	-0.05
c1nsc(C2CN3CCC2CC3)n1 (stereo not given)	log10 of K app	0.52
Cc1nsc(C2=CCCN(C)C2)n1	log10 of K app	0.15
CN(C)c1nsc([C@H]2CN3CCC2C3)n1 (stereo not given in full)	log10 of K app	0.00
CC(C)c1nsc([C@H]2CN3CCC2C3)n1 (stereo not given in full)	log10 of K app	-0.40
c1ccc(Cc2nsc(C3CN4CCC3CC4)n2)cc1 (stereo not given)	log10 of K app	-1.09
CN(C)c1nsc(C2CN3CCC2CC3)n1 (stereo not given)	log10 of K app	-0.85
c1nsc([C@H]2CN3CCC2C3)n1 (stereo not given in full)	log10 of K app	0.15
OC(c1ccccc1)(c1ccccc1)c1nsc(C2CN3CCC2CC3)n1 (stereo not given)	log10 of K app	-3.70
COC(=O)C1=CCCNC1	log10 of K app	1.30
C1CC1c1nsc(C2CN3CCC2CC3)n1 (stereo not given)	log10 of K app	-1.64
Cc1nsc([C@@H]2CN3CCC2C3)n1 (stereo not given in full)	log10 of K app	-0.21
c1ccc(Cc2nsc([C@@H]3CN4CCC3C4)n2)cc1 (stereo not given in full)	log10 of K app	-0.47
C1CC1c1nsc([C@H]2CN3CCC2C3)n1 (stereo not given in full)	log10 of K app	-0.80
Cc1nsc(C2CCNC2)n1 (stereo not given)	log10 of K app	1.26
CC(C)c1nsc([C@@H]2CN3CCC2C3)n1 (stereo not given in full)	log10 of K app	-0.54

* * *

Recorded K app for the following compounds
Target: Muscarinic acetylcholine receptor (Rattus norvegicus) (UniProt P08482+P08483+P08485+P08911+P10980)

compound	K app / µM
CN1CCC=C(c2ncno2)C1	0.0077
c1ccc(Cc2nsc([C@H]3CN4CCC3C4)n2)cc1 (some centres undefined)	0.061
c1nsc([C@@H]2CN3CCC2C3)n1 (some centres undefined)	0.0056
COc1nsc(C2CN3CCC2CC3)n1 (centres undefined)	0.033
CC(C)c1nsc([C@@H]2CN3CCC2C3)n1 (some centres undefined)	0.041
CC(C)c1nsc([C@H]2CN3CCC2C3)n1 (some centres undefined)	0.055
Cc1nsc([C@@H]2CN3CCC2C3)n1 (some centres undefined)	0.00062
C1CC1c1nsc([C@@H]2CN3CCC2C3)n1 (some centres undefined)	0.004
COc1nsc([C@H]2CN3CCC2C3)n1 (some centres undefined)	0.017
CSc1nsc(C2CN3CCC2CC3)n1 (centres undefined)	0.012
CN1CCC=C(c2ncns2)C1	0.027
OC(c1ccccc1)(c1ccccc1)c1nsc(C2CN3CCC2CC3)n1 (centres undefined)	6.8e-05
Cc1nsc(C2=CCCN(C)C2)n1	0.0089
Cc1nsc(C2CN3CCC2CC3)n1 (centres undefined)	0.00078
CCc1nsc([C@H]2CN3CCC2C3)n1 (some centres undefined)	0.033
CCc1nsc(C2CN3CCC2CC3)n1 (centres undefined)	0.009
CN(C)c1nsc([C@H]2CN3CCC2C3)n1 (some centres undefined)	0.098
CCc1nsc([C@@H]2CN3CCC2C3)n1 (some centres undefined)	0.005
COc1nsc([C@@H]2CN3CCC2C3)n1 (some centres undefined)	0.006
Cc1nsc([C@H]2CN3CCC2C3)n1 (some centres undefined)	0.00045
Cc1nsc(C2CCNC2)n1 (centres undefined)	0.054
c1ccc(Cc2nsc(C3CN4CCC3CC4)n2)cc1 (centres undefined)	0.014
COC(=O)C1=CCCNC1	0.017
Cc1nsc(C2CCN(C)C2)n1 (centres undefined)	0.15
CN(C)c1nsc([C@@H]2CN3CCC2C3)n1 (some centres undefined)	0.062
CC(C)c1nsc(C2CN3CCC2CC3)n1 (centres undefined)	0.0031
CN(C)c1nsc(C2CN3CCC2CC3)n1 (centres undefined)	0.023
c1nsc([C@H]2CN3CCC2C3)n1 (some centres undefined)	0.0013
c1ccc(Cc2nsc([C@@H]3CN4CCC3C4)n2)cc1 (some centres undefined)	0.074
Cc1nsc(C2=CCCNC2)n1	0.0021
C1CC1c1nsc([C@H]2CN3CCC2C3)n1 (some centres undefined)	0.019
C1CC1c1nsc(C2CN3CCC2CC3)n1 (centres undefined)	0.0028
c1nsc(C2CN3CCC2CC3)n1 (centres undefined)	0.0077
C1=C(c2ncns2)CNCC1	0.014

All figures here come from ChEMBL document CHEMBL1124855.
